Entries and their inhibition values follow.
# subject_of_test: G-protein coupled receptor 55 (Homo sapiens) (UniProt Q9Y2T6)
# Sequence (Q9Y2T6 whole entry, looked up): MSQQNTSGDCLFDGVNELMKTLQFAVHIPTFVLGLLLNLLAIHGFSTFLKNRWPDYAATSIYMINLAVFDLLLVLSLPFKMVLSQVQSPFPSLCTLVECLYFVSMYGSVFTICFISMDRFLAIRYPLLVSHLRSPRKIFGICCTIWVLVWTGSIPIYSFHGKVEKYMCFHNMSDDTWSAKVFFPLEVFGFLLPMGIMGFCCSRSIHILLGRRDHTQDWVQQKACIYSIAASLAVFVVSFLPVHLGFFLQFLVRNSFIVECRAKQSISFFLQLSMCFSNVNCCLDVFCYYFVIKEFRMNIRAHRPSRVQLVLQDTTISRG
# test_details: GPR55 antagonists blocking LPI-driven arrestin recruitment, primary screen, imaging, U2OS, beta-arrestin-GFP, LPI agonist (AID 2013);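 also: U2OS cells stably carrying GPR55 and arrestin-GFP stimulated by 5 µM LPI near EC80; imaged beta-arrestin-GFP aggregate spots per cell after agonist stimulation; plate controls were LPI-stimulated DMSO wells for no effect and DMSO wells without LPI for full effect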
# recorded_conditions: U2OS GPR55 beta-arrestin-GFP translocation imaging, LPI antagonism; at 10 µM; active compounds read high
Out of some 290,000 compounds screened, about 370 (0.13%) were called active. Only a selection was taken, and actives are over-represented in it overall. Measured potencies and affinities stand elsewhere.
Return type: number; implicit unit %.

Answered cases to consult:
COc1cc(/C=N/OCC(=O)NC2CCCCC2C)ccc1OCc1ccc(Cl)cc1 (stereo not drawn)
-3.5
COc1ccc(Br)cc1S(=O)(=O)n1ccnc1
3.5
COc1ccc2[nH]c3c(=O)n(/N=C/c4ccc(OC)c(CN5CCCC5)c4)c(C)nc3c2c1
11.7
CCOC(=O)c1cc2c(=O)n3cccc(C)c3nc2n(Cc2ccccc2Cl)c1=N
85.6
CCC(C)n1c(SCC(=O)Nc2cc(C)on2)nc2ccccc2c1=O (stereo not drawn)
15.5

Documented inhibition of "COC(=O)c1cc2c(=O)n3cccc(C)c3nc2n(Cc2cccnc2)c1=N" : -5.2

----------
# subject_of_test: G-protein coupled receptor 55 (Homo sapiens)
# test_details: GPR55 antagonists blocking LPI-driven arrestin recruitment, primary screen, imaging, U2OS, beta-arrestin-GFP, LPI agonist (AID 2013)
# recorded_conditions: U2OS GPR55 beta-arrestin-GFP translocation imaging, LPI antagonism; at 10 µM
In all, about 290,000 compounds went through this assay and about 370 (0.13%) were called active.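 The calls were made as follows: active = spots per cell inhibited over 60%, with over 100 cells counted and total cytoplasm intensity under 500,000; inconclusive = wells with under 100 cells, flagged as likely toxic; inactive = the rest.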 This is one part of a sample in which actives are shown more often than they occur. Measured potencies and affinities stand elsewhere.
Choose one outcome from this list and give only that: active, inactive

Clc1cccc(-c2cc3nc4c(c(N5CCN(c6cnccn6)CC5)n3n2)CCCC4)c1
inactive
Cc1ccc(-n2c(C)csc2=N)cc1
inactive
COc1ccc2c(c1)[nH]c1c(N3CCSCC3)ncnc12
inactive

Could you check what this test reported for "Cc1[nH]c(C)c(S(=O)(=O)N2CCCCC2)c1C(=O)N1CCCCC1" ?
inactive

----------
# subject_of_test: G-protein coupled receptor 55 (Homo sapiens)
# test_details: GPR55 antagonists blocking LPI-driven arrestin recruitment, primary screen, imaging, U2OS, beta-arrestin-GFP, LPI agonist (AID 2013)
# recorded_conditions: U2OS GPR55 beta-arrestin-GFP translocation imaging, LPI antagonism; at 10 µM; active compounds read high
Out of some 290,000 compounds screened, about 370 (0.13%) were called active. The entries come from a sample that favours actives as a whole. Potency and affinity values are given separately.
observed_property: inhibition

Answered cases to consult:
CC(NC(=O)CN1CCCC1)C12CC3CC(CC(C3)C1)C2 (stereo not given)
-3.7% (inactive)
S=C(Nc1ccccc1Oc1ccccc1)Nc1cccc(Cl)c1Cl
-5.2% (inactive)
Clc1ncnc2c1oc1ccccc12
26.5% (inactive)
CC(C)(C)c1ccc(CN2C3=NCCCN3c3ccccc32)cc1
29.1% (inactive)
COc1ccc(-n2c(C)cc(C=O)c2C)cc1Cl
15.8% (inactive)

The compound CC(c1ccccc1C(O)c1ccccc1)N(C)C (stereo not given) on G-protein coupled receptor 55 (Homo sapiens): inhibition was 28.9% (inactive)

----------
# subject_of_test: G-protein coupled receptor 55 (Homo sapiens) (UniProt Q9Y2T6)
# test_details: GPR55 antagonists blocking LPI-driven arrestin recruitment, primary screen, imaging, U2OS, beta-arrestin-GFP, LPI agonist (AID 2013)
# recorded_conditions: U2OS GPR55 beta-arrestin-GFP translocation imaging, LPI antagonism; at 10 µM; active compounds read high
The campaign covered roughly 290,000 compounds. About 370 (0.13%) were called active. For the sample, actives were picked, then their nearest neighbours and some compounds at random. Measured potencies and affinities stand elsewhere.
observed_property: inhibition (%)
Return type: number; implicit unit %.

The compound COc1ccc(C2c3ccc(O)cc3Oc3ncn(CCN4CCOCC4)c(=N)c32)cc1 (stereo unspecified) on G-protein coupled receptor 55 (Homo sapiens) (UniProt Q9Y2T6): inhibition was 18.9

----------
# subject_of_test: G-protein coupled receptor 55 (Homo sapiens) (UniProt Q9Y2T6)
# test_details: GPR55 antagonists blocking LPI-driven arrestin recruitment, primary screen, imaging, U2OS, beta-arrestin-GFP, LPI agonist (AID 2013)
# recorded_conditions: U2OS GPR55 beta-arrestin-GFP translocation imaging, LPI antagonism; at 10 µM; active compounds read high
In all, about 290,000 compounds went through this assay and about 370 (0.13%) were called active. The sample holds actives, similar compounds and a random draw of the others, so the mix is not that of the screen. Measured potencies and affinities stand elsewhere.
Would you mind labelling by inhibition? At or over 10% is label 1, under is label 0.

CC1CC(N(C(=O)c2ccco2)c2ccccc2)c2ccccc2N1 (configuration not stated)
label 1
CCN(CC)CCNC(=O)c1cc2c(s1)-c1ccccc1SC2
label 1
COc1ccccc1NC(=O)Nc1ccnn1C1CCCCC1
label 0
Clc1ccc(-n2nnnc2-c2cnc(-c3ccncc3)nc2-c2cccs2)cc1
label 0
Cc1ccccc1CN(C)CC(=O)Nc1ccccc1Oc1ccccc1
label 1

Answer whether inhibition of CCOC(=O)C1=C(C)NC(=O)NC1c1ccc(Br)o1 (configuration not stated) is greater than or equal to 10%.
label 0

Answer whether inhibition of "O=S(=O)(c1ccccc1)N1CCCc2ccccc21" is greater than or equal to 10%.
label 0

Answer whether inhibition of CC1CC(N(C(=O)c2ccc(Cl)cc2)c2ccccc2)c2ccccc2N1C(=O)c1ccco1 (configuration not stated) is greater than or equal to 10%.
label 1

----------
# subject_of_test: G-protein coupled receptor 55 (Homo sapiens) (UniProt Q9Y2T6)
# test_details: GPR55 antagonists blocking LPI-driven arrestin recruitment, primary screen, imaging, U2OS, beta-arrestin-GFP, LPI agonist (AID 2013);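 also: U2OS cells stably carrying GPR55 and arrestin-GFP stimulated by 5 µM LPI near EC80; imaged beta-arrestin-GFP aggregate spots per cell after agonist stimulation; plate controls were LPI-stimulated DMSO wells for no effect and DMSO wells without LPI for full effect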
# recorded_conditions: U2OS GPR55 beta-arrestin-GFP translocation imaging, LPI antagonism; at 10 µM; active compounds read high
About 370 (0.13%) of roughly 290,000 compounds were called active. The full list was thinned out, with actives kept by preference. Entries with a potency or affinity are not part of this list.
observed_property: inhibition (%)
Return type: number; implicit unit %.

COc1cccc(C(=O)Nc2cc(C(=O)NCc3ccc(C)cc3)ccc2N2CCC3(CC2)CC(c2ccccc2)=NO3)c1
10.8
CCc1ccc2c(c1)cc(CN(C(=S)Nc1ccccc1C)C1CC1)c1nnnn12
-0.7
O=C(O)c1cc(NS(=O)(=O)c2ccc(N3CCCCC3)c([N+](=O)[O-])c2)cc(C(=O)O)c1
5
O=C(Nc1ccnn1C1CCN(Cc2cc3ccccc3[nH]2)CC1)C1CCOC1 (centres undefined)
1.9
CCC(=O)N1CCc2cc(Br)cc(S(=O)(=O)NCCN3CCCCC3CC)c21 (centres undefined)
5.4
Cc1ccc(OCCCn2ccnc2)c([N+](=O)[O-])c1
11.8
C[N+]1=C(/C=C/Nc2ccccc2Cl)C(C)(C)c2ccccc21
0.9
COc1ccc(NC(=O)CN2CCN(C3c4ccccc4-c4ccccc43)CC2)cc1
9.6
Cc1c(C(=O)NCCN2CCCC(O)C2)oc2c(F)cccc12 (centres undefined)
26.6
Cc1nc2ccc(S(=O)(=O)N3CCCCC3)cc2s1
-5.9

Documented inhibition of "S=C1Cc2ccccc2N1" : -4.5

Documented inhibition of "CSc1nc2ccc(S(=O)(=O)N3CCCCC3)cc2s1" : 10.7

Documented inhibition of "Cc1ccc(OCC(=O)N2c3ccccc3NC(=O)C2(C)C)c([N+](=O)[O-])n1" : 6.9

Documented inhibition of COc1ccc(C2CC(=O)c3cnn(-c4nc(C)cc(C)n4)c3C2)cc1OC (centres undefined) : 6.6

Documented inhibition of "COc1ccccc1NC(=O)CN1CCN(CC(=O)Nc2cc(NC(C)=O)ccc2OC)CC1" : -4.4

----------
# subject_of_test: G-protein coupled receptor 55 (Homo sapiens) (UniProt Q9Y2T6)
# test_details: GPR55 antagonists blocking LPI-driven arrestin recruitment, primary screen, imaging, U2OS, beta-arrestin-GFP, LPI agonist (AID 2013);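 also: U2OS cells stably carrying GPR55 and arrestin-GFP stimulated by 5 µM LPI near EC80; imaged beta-arrestin-GFP aggregate spots per cell after agonist stimulation; plate controls were LPI-stimulated DMSO wells for no effect and DMSO wells without LPI for full effect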
# recorded_conditions: U2OS GPR55 beta-arrestin-GFP translocation imaging, LPI antagonism; at 10 µM; active compounds read high
About 370 (0.13%) of roughly 290,000 compounds were called active. Shown is part of a subset that was picked to be rich in actives. Results with a measured potency or affinity are listed apart.
Entries and their inhibition values follow.
Return type: number; implicit unit %.

Documented inhibition of COc1cccc(NC(=O)COC(=O)C2C3CC4OC(=O)C2C4C3)c1 (stereo unspecified) : 2.1

Documented inhibition of "CN1CCN(CCCNC(=O)c2ccc(/C=C3\Sc4ccccc4N(Cc4ccc(F)cc4)C3=O)cc2)CC1" : 6.1

----------
Entries and their inhibition values follow.
# subject_of_test: G-protein coupled receptor 55 (Homo sapiens)
# test_details: GPR55 antagonists blocking LPI-driven arrestin recruitment, primary screen, imaging, U2OS, beta-arrestin-GFP, LPI agonist (AID 2013);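 also: U2OS cells stably carrying GPR55 and arrestin-GFP stimulated by 5 µM LPI near EC80; imaged beta-arrestin-GFP aggregate spots per cell after agonist stimulation; plate controls were LPI-stimulated DMSO wells for no effect and DMSO wells without LPI for full effect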
# recorded_conditions: U2OS GPR55 beta-arrestin-GFP translocation imaging, LPI antagonism; at 10 µM; active compounds read high
The campaign covered roughly 290,000 compounds. About 370 (0.13%) were called active. The entries come from a sample that favours actives as a whole. Results with a measured potency or affinity are listed apart.
Return type: number; implicit unit %.

Documented inhibition of "CCc1nnc(NS(=O)(=O)c2ccc(NC(=O)/C=C/c3ccc(F)cc3)cc2)s1" : 1.5

Documented inhibition of "CCc1nnc(NS(=O)(=O)c2ccc(NC(=O)Nc3ccc(OC)cc3)cc2)s1" : -0.7

Documented inhibition of "CCN1C(=O)N/C(=C/c2ccc(C)o2)C1=O" : -0.6

Documented inhibition of "O=C(O)c1ccc2c(c1)S(=O)(=O)N=C1CCCCCN12" : 16.8

Documented inhibition of CCc1noc(C)c1C(=O)N1CC(C)OC(C)C1 (configuration not stated) : 22

Documented inhibition of "CCOC(=O)CSc1nnc(Cn2nnc(-c3ccccc3)n2)n1CC" : 16

Documented inhibition of "O=C(Nc1ccnc(=O)[nH]1)c1sc2ccccc2c1Cl" : 5.4

Documented inhibition of "CSc1c(CC(=O)Nc2ccccc2)n(C)c2ccccc12" : -1

Documented inhibition of "c1coc(CN(Cc2cccs2)Cc2nnnn2C2CCCCC2)c1" : 25.9

Documented inhibition of "O=C1Nc2ccccc2N(O)N1c1ccc(S(=O)(=O)N2CCCCCC2)cc1" : 7.8

Documented inhibition of "c1ccc(Nc2nc(NCc3ccco3)c3ccccc3n2)cc1" : 73.7

Documented inhibition of "CCc1nnc(NS(=O)(=O)c2ccc(NC(=S)NC(=O)/C=C/c3ccc(OC)cc3)cc2)s1" : 10.6

Documented inhibition of "CCOCCc1nn2c(=O)cc(CSCC(=O)Nc3ccc(OC)cc3)nc2s1" : 16.4

Documented inhibition of "COc1ccc(CN2C(=O)/C(=C/c3ccc(-c4ccc(Cl)c(C(=O)O)c4)o3)SC2=S)cc1" : 34.2

Documented inhibition of "Cc1ccc(/C=C2/NC(=O)N(Cc3ccccc3F)C2=O)o1" : -7.6

Documented inhibition of Cc1nc2ccccc2n1CC(O)Cn1c(C(F)(F)F)nc2ccccc21 (configuration not stated) : 6.6

Documented inhibition of "CC(C)(C)c1ccc(CN(Cc2ccco2)Cc2nnnn2C2CCCC2)cc1" : 19.2
